# Procedure Summary: ATG_RORE_CIS: Attagene CIS-FACTORIAL HepG2 Assay for human RAR-related Orphan Receptor Element (RORE) (AID 2282959)
# Test Parameters: HepG2 Attagene cis-factorial RORE reporter, mRNA; actives raise or lower the signal
Calls of active or inactive are those of the source. Rule for the calls: active = hit-call score of the fitted dose curve at least 0.9, where 1 is the maximum; inactive = score below 0.9.
Your answer must be one of the following: active, inactive

Recorded test call requested for Nc1ccccc1C(=O)Oc1ccc2ccccc2c1
inactive

Follow-up item: O=CNC(N1CCN(C(NC=O)C(Cl)(Cl)Cl)CC1)C(Cl)(Cl)Cl (stereo not drawn)
inactive

Follow-up item: CCOP(O)OCC
inactive

Follow-up item: CCCOC(=O)c1ccccc1C(=O)OCCC
inactive

Follow-up item: N#Cc1cc(I)c(O)c(I)c1
inactive

Follow-up item: C=CC(=O)OCCO
active

Follow-up item: O=C(O)C(Br)Br
inactive

Follow-up item: N#Cc1cccc(C#N)c1
inactive

Follow-up item: COCC(=O)N(c1c(C)cccc1C)N1CCOC1=O
inactive

Follow-up item: c1ccc(P(c2ccccc2)c2ccccc2)cc1
inactive

Follow-up item: COC(=O)COc1ccc(Cl)cc1Cl
inactive

Follow-up item: [CH3][Sn]([Cl])([Cl])[Cl]
inactive

Follow-up item: CC1CCC(=O)O1 (stereo not drawn)
inactive

Follow-up item: [Cl][Sb]([Cl])[Cl]
inactive

Follow-up item: CC1OC(C)OC(C)O1 (stereo not drawn)
inactive

Follow-up item: SCc1ccco1
inactive

Follow-up item: Clc1ccc(-c2ccccc2)cc1
inactive

Follow-up item: CCC(Br)(CC)C(=O)NC(N)=O
inactive

Follow-up item: C[N+](C)(C)CC(=O)[O-]
inactive

Follow-up item: C[N+](C)(C)CC(=O)O
inactive

Follow-up item: CCOC(=O)C1OC1(C)c1ccccc1 (stereo not drawn)
inactive

Follow-up item: CCCCCCCCCCCCCCCC[N+](C)(C)C
inactive

Follow-up item: COc1ncc(F)c2nc(S(=O)(=O)Nc3c(F)cccc3F)nn12
inactive
